Data provenance is ChEMBL document CHEMBL1132621.

Biological target: Prostaglandin G/H synthase 2 (Homo sapiens, UniProt P35354)
Sequence (P35354 whole entry): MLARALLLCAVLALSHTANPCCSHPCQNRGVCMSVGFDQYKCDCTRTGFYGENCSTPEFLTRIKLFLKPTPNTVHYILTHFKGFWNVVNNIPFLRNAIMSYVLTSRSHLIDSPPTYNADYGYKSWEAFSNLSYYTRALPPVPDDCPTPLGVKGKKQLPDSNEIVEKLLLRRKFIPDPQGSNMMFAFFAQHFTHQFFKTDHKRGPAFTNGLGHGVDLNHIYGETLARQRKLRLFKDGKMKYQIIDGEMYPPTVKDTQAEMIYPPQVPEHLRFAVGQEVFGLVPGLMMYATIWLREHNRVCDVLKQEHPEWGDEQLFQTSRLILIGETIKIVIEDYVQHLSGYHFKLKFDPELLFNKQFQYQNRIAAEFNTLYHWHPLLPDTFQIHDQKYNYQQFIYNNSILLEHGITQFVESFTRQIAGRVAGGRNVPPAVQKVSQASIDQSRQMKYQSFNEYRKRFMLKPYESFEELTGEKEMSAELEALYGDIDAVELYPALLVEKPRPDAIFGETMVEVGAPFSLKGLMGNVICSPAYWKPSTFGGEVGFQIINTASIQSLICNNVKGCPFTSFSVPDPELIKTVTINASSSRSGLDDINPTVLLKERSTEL
Assay: IC50 against recombinant human Prostaglandin G/H synthase 2
pIC50: −log10 of the molar value.
Label scheme for pIC50: lower than 5 is NOT MET, 5 and above is MET.

In: # bool: pIC50 of `CC(C)(C)c1cc(/C=C2\OC(N=C(N)N)=NC2=O)cc(C(C)(C)C)c1O` >= 5
Out: MET

In: Threshold query (pIC50 >= 5) on `CSC1=NC(=O)/C(=C/c2cc(C(C)(C)C)c(O)c(C(C)(C)C)c2)S1`
Out: MET

In: Reported pIC50 reaches at least 5 for `CONC1=NC(=O)/C(=C/c2cc(C(C)(C)C)c(O)c(C(C)(C)C)c2)S1` ?
Out: MET

In: Does pIC50 meet or surpass 5 for `CCONC1=NC(=O)/C(=C/c2cc(C(C)(C)C)c(O)c(C(C)(C)C)c2)O1` ?
Out: NOT MET
